# ASSAY PROTOCOL: acute toxicity in rats
# STUDY CONDITIONS: rat, in vivo, oral
MEASURE: LD50

Enquiry: Return reported LD50; argument: COc1ccc(C2CNC(=O)C2)cc1OC1CCCC1 (racemic) [Rolipram]
Return: ~1200 mg/kg
